Recorded Relative binding activity, one value per entry.
Molecular target: T1, recombinant human soluble gpNMB (recombinant human gpNMB-FLAG-His) (human, UniProt Q14956 23-498)
T1 sequence: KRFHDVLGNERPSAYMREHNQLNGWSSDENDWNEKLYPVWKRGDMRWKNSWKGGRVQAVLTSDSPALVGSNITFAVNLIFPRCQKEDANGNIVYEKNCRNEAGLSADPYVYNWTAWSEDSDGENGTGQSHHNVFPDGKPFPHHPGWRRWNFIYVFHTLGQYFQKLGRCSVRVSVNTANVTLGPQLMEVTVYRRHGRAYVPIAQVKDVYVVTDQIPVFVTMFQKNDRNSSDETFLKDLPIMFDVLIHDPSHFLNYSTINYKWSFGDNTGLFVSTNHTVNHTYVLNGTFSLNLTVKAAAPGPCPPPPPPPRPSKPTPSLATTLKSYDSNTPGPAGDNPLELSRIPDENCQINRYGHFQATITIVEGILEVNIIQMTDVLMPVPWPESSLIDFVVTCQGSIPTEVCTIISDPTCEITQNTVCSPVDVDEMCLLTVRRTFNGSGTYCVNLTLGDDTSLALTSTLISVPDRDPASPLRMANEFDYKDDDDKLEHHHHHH
Assay: antigen ELISA, vs hGPN06-1_H1L1
Give the figure only, with no unit attached.

• hGPN06-1_H1L1 VH P105A (antibody, V domains shown) VH: QVQLVQSGAEVKKPGASVKVSCKASGYTFTDNWMGWVKQRPGQGLEWIGAIDPSDSFTNYNQNFKGRVTMTVDTSISTAYMELSRLRSDDSAVYFCTRSGYYGSAKLGGDYWGQGTLVTVSS VL: EIVLTQSPSSLSASVGDRVTITCSASSSISYMHWYQQKSGTAPKLLIYSTSNLASGVPSRFSGSGSGTDFTFTISSLQPEDAATYYCHQWNSYPCTFGGGTKLEIK = 1.09
• hGPN06-1_H1L1 VH T97A (antibody, V domains shown) VH: QVQLVQSGAEVKKPGASVKVSCKASGYTFTDNWMGWVKQRPGQGLEWIGAIDPSDSFTNYNQNFKGRVTMTVDTSISTAYMELSRLRSDDSAVYFCARSGYYGSPKLGGDYWGQGTLVTVSS VL: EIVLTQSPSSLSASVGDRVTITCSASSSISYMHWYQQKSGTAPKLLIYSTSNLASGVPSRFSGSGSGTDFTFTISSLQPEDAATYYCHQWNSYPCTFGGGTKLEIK = 0.98

input: Sample hGPN06-1_H1L1 VH G100A (antibody, V domains shown) VH: QVQLVQSGAEVKKPGASVKVSCKASGYTFTDNWMGWVKQRPGQGLEWIGAIDPSDSFTNYNQNFKGRVTMTVDTSISTAYMELSRLRSDDSAVYFCTRSAYYGSPKLGGDYWGQGTLVTVSS VL: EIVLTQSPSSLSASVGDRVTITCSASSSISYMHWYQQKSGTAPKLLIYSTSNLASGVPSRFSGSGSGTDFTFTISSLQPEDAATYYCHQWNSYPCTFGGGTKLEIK — what was its Relative binding activity?
output: 0.06
